- measurement-notes: BET inhibitor-based combinations targeting novel dependencies in MECOM-rearranged (r) AML: AML-194 cell line (AID 2202237; note: nearly all actives have a fitted effect of over 40% in size)
- particulars: AML-194 (MECOM-r AML) viability, CellTiter-Glo, 48 h; series mostly up to 46 µM
Results filed as inconclusive are left out. Active and inactive are the calls of the source. Calls come from the whole dose curve; as a rule, active = well fitted inhibition curve with a large enough effect; inconclusive = small, poorly fitted or top-dose-only effect; inactive = flat fitted curve, though single readings scatter.
Hi! Could you answer with just one of these? t for active, f for inactive

Inquiry: I'd appreciate the recorded outcome for CC(C)(CO)n1cc(C(=O)c2cncc(NC(=O)Cc3ccc(Cl)cn3)c2)c2cnc(N)nc21 from this test.
Reply text: t

Inquiry: I'd appreciate the recorded outcome for COCc1c(-c2ccc(NC(=O)Nc3cc(C(F)(F)F)ccc3F)c(F)c2)c2c(N)ncnn2c1CN1CCOCC1 from this test.
Reply text: t

Inquiry: I'd appreciate the recorded outcome for CN(C)C(=O)COC(=O)Cc1ccc(OC(=O)c2ccc(N=C(N)N)cc2)cc1 from this test.
Reply text: f

Inquiry: I'd appreciate the recorded outcome for CCOC(=O)[C@@H](N)Cc1ccc(-c2cc(O[C@H](c3ccc(Cl)cc3-n3ccc(C)n3)C(F)(F)F)nc(N)n2)cc1 from this test.
Reply text: t

Inquiry: I'd appreciate the recorded outcome for COc1cc(-c2cn(C)c(=O)c3cnccc23)c(OC)cc1CN(C)C from this test.
Reply text: f

Inquiry: I'd appreciate the recorded outcome for COCCOC(=O)N1CCN(S(=O)(=O)c2cc(F)c(Oc3ccc(Cl)cc3)c(F)c2)C(C(=O)NO)C1 (stereo not drawn) from this test.
Reply text: t

Inquiry: I'd appreciate the recorded outcome for CN(C)C/C=C/C(=O)Nc1ccc(C(=O)N2CCC[C@@H](Nc3ncc(Cl)c(-c4c[nH]c5ccccc45)n3)C2)cc1 from this test.
Reply text: t

Let's switch to this compound now.
Inquiry: I'd appreciate the recorded outcome for C[C@H](Nc1nc(N[C@H](C)C(F)(F)F)nc(-c2cccc(Cl)n2)n1)C(F)(F)F from this test.
Reply text: f
